- target under test: T1, Tbar-aLhr2-ΔDom4 (Thermococcus barophilus, UniProt F0LJX3 1-513)
- T1 sequence: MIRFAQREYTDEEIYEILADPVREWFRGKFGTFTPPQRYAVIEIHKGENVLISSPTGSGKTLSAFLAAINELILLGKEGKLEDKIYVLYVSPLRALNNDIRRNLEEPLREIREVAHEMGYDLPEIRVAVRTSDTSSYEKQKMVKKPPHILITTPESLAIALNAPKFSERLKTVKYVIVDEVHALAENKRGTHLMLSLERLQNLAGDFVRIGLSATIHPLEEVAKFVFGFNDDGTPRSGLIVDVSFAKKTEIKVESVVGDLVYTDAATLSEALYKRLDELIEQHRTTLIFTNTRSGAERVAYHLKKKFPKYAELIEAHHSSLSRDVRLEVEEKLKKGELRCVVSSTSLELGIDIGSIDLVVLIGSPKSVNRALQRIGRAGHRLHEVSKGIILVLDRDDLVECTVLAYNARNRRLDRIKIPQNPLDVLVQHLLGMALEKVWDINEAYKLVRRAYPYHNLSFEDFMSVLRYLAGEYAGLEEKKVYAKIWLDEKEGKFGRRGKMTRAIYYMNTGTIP
- experiment notes: filter binding; 5 mM Mg2+; 25 mM Tris-HCl pH 8, 50 mM NaAc, 5 mM MgCl2, 2.5 mM beta-mercaptoethanol; protein preincubated 10 min 65 C, binding 15 min 30 C; 0.5 nM substrate (Methods); Resu
- conditions used: protein: recombinant; tags: untagged; label: 5'-32P; single strand
Each entry below carries its recorded pKd.
// pKd: -log10(molar conc.)

- ATCGATAGTCTCTAGACAGCATGTCCTAGCAAGCCAGAATTCGGCAGCGT (ssDNA) [DNA50]: 7.27
- GGACATGCTGTCTAGAGACTATCGAT (ssDNA) [DNA26]: 6.68
- ACGCUGCCGAAUUCUGGCUUGCUAGG (ssRNA) [RNA26]: 6.82

// switching to the query binder
query: Bench note: what pKd did AUCGAUAGUCUCUAGACAGCAUGUCCUAGCAAGCCAGAAUUCGGCAGCGU (ssRNA) [RNA50] show?
result: 7.16
